Molecular target: T1, GPPPPIDNGDITSFP(GGGK-biotin)
T1 construct: also called biotinylated 15-mer peptide; biotinylated 19-mer
T1 peptide: GPPPPIDNGDITSFPGGGK(Biotin)
Test: ELISA: biotinylated peptide captured on immobilized Neutravidin, antibody at 0.5 µg/ml, anti-human IgG-HRP/ABTS, OD 405 nm
Where no end group is shown, it is not given here. The star is where a group is joined. Biotin = O=C1N[C@H]2[C@H](CS[C@H]2CCCCC(=O)*)N1

binder	binding result
7982/6018 (antibody, V domains shown, also called clone 6; H007982/K006018) VH: LVESGGGVVPPGKSLRLSCAASGFTFSLYGIHWVRQAPGKGLEWVAVISYDGNTKYYTDSVKGRFTISRDNAKNTIYLQMNSLRLDDTAVYYCAKGAANSATFDFWGRGTMVTVSS VL: MTQSPDSLTLSLGERATINCRSSRTVLYRSNNKNYLAWYQHKPGQPPKLLMSWASTRETGVPDRFSGSGSGTHFTLTITSLQPEDVAVYYCQQYYSPPWTFGQGTKVEIR	binds
Ab7970 (antibody, IgG1, V domains shown, IgG1 heavy chain backbone and kappa constant; also called clone 18; pH007970/pK005991_6004) VH: LVESGGGVVQPGRSLRLSCAASGLTFSFYNFHWVRQTPGKGLEWVAGISYDATRTNYAGSVTGRFTISRDNSKKMLYLQMSSLGPQDTAVYHCARDRSDGQLHKVAFDSWGQGALVTVSS VL: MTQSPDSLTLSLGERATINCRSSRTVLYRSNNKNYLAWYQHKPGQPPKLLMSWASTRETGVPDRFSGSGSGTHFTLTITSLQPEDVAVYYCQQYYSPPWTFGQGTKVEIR	binds
Ab7979 (antibody, IgG1, V domains shown, Recombinant human antibody with IgG1 heavy chain backbone and kappa light chain constant; they begin at LVESGGG and MTQSP; also called Ab7979/239i; mAb 7979) VH: LVESGGGVVQPGKSLRLSCVASGFTFSTYGMHWVRQAPGKGLEWVAVMSFDGKTKYYADSVKGRFTISRDNPKNTLYLQMNSLRSEDTAVYYCAKGGAAAAVFDSWGQGILLTVSS VL: MTQSPNSLAVSLGGRATINCKTSQSILYRSNNKNYLAWYQHKPGQPPKLLIYWASTRESRVPDRFSGSGSRTDFTLTISGLQAEDVAVYYCQQYYNPPWTFGQGTKVEIK	binds
